Percent cleavage for assorted proteins
# system.under.test: AxCT mask27 EGFR EH104 L061 version 1
property.label: Percent cleavage (%)

protein	reported.value
MMP-7 (protein) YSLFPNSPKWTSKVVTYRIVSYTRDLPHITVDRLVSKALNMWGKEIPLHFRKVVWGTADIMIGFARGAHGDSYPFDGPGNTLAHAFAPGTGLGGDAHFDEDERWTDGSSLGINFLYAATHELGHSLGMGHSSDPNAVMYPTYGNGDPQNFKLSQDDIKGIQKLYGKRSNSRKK	26
Neutrophil Elastase (protein) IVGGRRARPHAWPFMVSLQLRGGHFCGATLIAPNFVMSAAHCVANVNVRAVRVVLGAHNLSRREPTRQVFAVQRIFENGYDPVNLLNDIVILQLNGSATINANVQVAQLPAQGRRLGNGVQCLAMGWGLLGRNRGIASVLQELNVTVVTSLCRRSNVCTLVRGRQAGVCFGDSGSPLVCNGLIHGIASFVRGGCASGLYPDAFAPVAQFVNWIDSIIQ	19

Source of measurements: patent US20240336909
